- Tested on: SW1353
- protocol details: relative viability vs DMSO control (72 h) (fraction); higher = more viable cells
- condition details: 0.04115 µM
Catalogue of relative viability readings, one per entry.
measured endpoint: relative viability

> print(dat)
                           smiles.structure  experimental.result
1  Cc1cccc(-c2nn3c(c2-c2ccnc4ccc(C(N)=O)cc24)CCC3)n1                0.926
2    Clc1ccc(Nc2nnc(Cc3ccncc3)c3ccccc23)cc1                0.959
3  CC(C)(C)c1nc(-c2cccc(NS(=O)(=O)c3c(F)cccc3F)c2F)c(-c2ccnc(N)n2)s1                0.936
4  CC1(COc2ccc3c(c2)ncn3-c2ccc3cccc(N4CCC(N)CC4)c3n2)COC1                0.917

----------
- Tested on: SW872
- protocol details: relative viability vs DMSO control (72 h) (fraction); higher = more viable cells
- condition details: 0.04115 µM
Below, each entry is listed alongside its reported relative viability.
measured endpoint: relative viability

> print(dat)
                           smiles.structure   measured.endpoint  experimental.result
1  CC(C)(O)CNc1nc(Nc2ccnc(C(F)(F)F)c2)nc(-c2cccc(C(F)(F)F)n2)n1  relative viability                 1.06
2   O=c1sn(-c2cccc3ccccc23)c(=O)n1Cc1ccccc1  relative viability                  1.1
3  CCC(=O)N1CC[C@H](Nc2ncnc3c2CN(c2cnc(OC)c(C(F)(F)F)c2)CC3)C1  relative viability                 1.03
4  CCc1cnn2c(NCc3ccc[n+]([O-])c3)cc(N3CCCC[C@H]3CCO)nc12  relative viability                0.412
5  O=C(Nc1ccc(OC(F)(F)Cl)cc1)c1cnc(N2CC[C@@H](O)C2)c(-c2cc[nH]n2)c1  relative viability                0.978

----------
- System: SW684
- protocol details: relative viability vs DMSO control (72 h) (fraction); higher = more viable cells
- condition details: 1.111 µM
Friendly reminder: relative viability below 0.7 is Yes, at or above is No.

> print(dat)
                           smiles.structure  class
1  CC(C)NC[C@@H](C(=O)N1CCN(c2ncnc3c2[C@H](C)C[C@H]3O)CC1)c1ccc(Cl)cc1    Yes
2  CCC(=O)N1CC[C@H](Nc2ncnc3c2CN(c2cnc(OC)c(C(F)(F)F)c2)CC3)C1     No
3  N#CCNC(=O)c1ccc(-c2ccnc(Nc3ccc(N4CCOCC4)cc3)n2)cc1     No
4  CC#CC(=O)N1CCC[C@H]1c1nc(-c2ccc(C(=O)Nc3ccccn3)cc2)c2c(N)nccn12     No
5  Cn1ncnc1[C@H]1c2n[nH]c(=O)c3cc(F)cc(c23)N[C@@H]1c1ccc(F)cc1     No

----------
- Test system: RD
- protocol details: standardised AUC of viability dose-response curve (72 h) (fraction (0-1)); higher = less growth inhibition (more resistant)
Catalogue of compounds with associated standardised AUC

smiles structure	standardised AUC
CC#CC(=O)N1CCC[C@H]1c1nc(-c2ccc(C(=O)Nc3ccccn3)cc2)c2c(N)nccn12	0.976
CO[C@H]1C[C@@H]2CC[C@@H](C)[C@@](O)(O2)C(=O)C(=O)N2CCCC[C@H]2C(=O)O[C@H]([C@H](C)C[C@@H]2CC[C@@H](OCCO)[C@H](OC)C2)CC(=O)[C@H](C)/C=C(\C)[C@@H](O)[C@@H](OC)C(=O)[C@H](C)C[C@H](C)/C=C/C=C/C=C/1C	0.765
COCCNc1cc(NC(=O)N2CCCc3cc(CN4CCN(C)CC4=O)c(C=O)nc32)ncc1C#N	0.992
CCN(CC)CCNC(=O)c1c(C)[nH]c(/C=C2\C(=O)Nc3ccc(F)cc32)c1C	0.836
CC1(COc2ccc3c(c2)ncn3-c2ccc3cccc(N4CCC(N)CC4)c3n2)COC1	0.942
Cn1cc(C2=C(c3cn(C4CCN(Cc5ccccn5)CC4)c4ccccc34)C(=O)NC2=O)c2ccccc21	0.995
O=S(=O)(c1cccc2cnccc12)N1CCCNCC1	1
CC(C)Oc1ccc(-c2nn([C@@H](C)c3oc4ccc(F)cc4c(=O)c3-c3cccc(F)c3)c3ncnc(N)c23)cc1F	0.998
CC(C)(C)c1nc(-c2cccc(NS(=O)(=O)c3c(F)cccc3F)c2F)c(-c2ccnc(N)n2)s1	0.941

----------
The compounds listed here are annotated with their relative viability.
- System: KHOS-NP
- protocol details: relative viability vs DMSO control (72 h) (fraction); higher = more viable cells
- condition details: 1.111 µM
measured endpoint: relative viability

> print(dat)
                           smiles.structure  experimental.result
1  CC#CC(=O)N1CCC[C@H]1c1nc(-c2ccc(C(=O)Nc3ccccn3)cc2)c2c(N)nccn12                 1.04
2  CC(C)NC[C@@H](C(=O)N1CCN(c2ncnc3c2[C@H](C)C[C@H]3O)CC1)c1ccc(Cl)cc1                 1.04
3  CCN(CC)CCNC(=O)c1c(C)[nH]c(/C=C2\C(=O)Nc3ccc(F)cc32)c1C                0.973
4    Clc1ccc(Nc2nnc(Cc3ccncc3)c3ccccc23)cc1                 1.07
5  CC[C@@H]1CN(C(=O)NCC(F)(F)F)C[C@@H]1c1cnc2cnc3[nH]ccc3n12                 1.03
6  CN1CC[C@@H](NC(=O)Nc2ccc(C#N)cc2)C[C@@H]1c1nc2ccccc2[nH]1                 1.11

----------
- Test system: SW1353
- protocol details: relative viability vs DMSO control (72 h) (fraction); higher = more viable cells
- condition details: 0.1235 µM
measured endpoint: relative viability

> print(dat)
                           smiles.structure  experimental.result
1  Cn1ncnc1[C@H]1c2n[nH]c(=O)c3cc(F)cc(c23)N[C@@H]1c1ccc(F)cc1                0.889
2  C[C@]12O[C@H](C[C@]1(O)CO)n1c3ccccc3c3c4c(c5c6ccccc6n2c5c31)CNC4=O                0.756
3  CCC(=O)N1CC[C@H](Nc2ncnc3c2CN(c2cnc(OC)c(C(F)(F)F)c2)CC3)C1                0.953

----------
- Tested on: SW872
- protocol details: relative viability vs DMSO control (72 h) (fraction); higher = more viable cells
- condition details: 0.1235 µM
The following compounds are listed with their measured relative viability values.
measured endpoint: relative viability

> print(dat)
                           smiles.structure  experimental.result
1  CN1CCN(c2ccc(C(=O)Nc3n[nH]c4ccc(Cc5cc(F)cc(F)c5)cc34)c(NC3CCOCC3)c2)CC1                 1.03
2  COCCNc1cc(NC(=O)N2CCCc3cc(CN4CCN(C)CC4=O)c(C=O)nc32)ncc1C#N                0.921
3  CCc1cnn2c(NCc3ccc[n+]([O-])c3)cc(N3CCCC[C@H]3CCO)nc12                0.279
4  CCC(=O)N1CC[C@H](Nc2ncnc3c2CN(c2cnc(OC)c(C(F)(F)F)c2)CC3)C1                 1.03
5  CNC(=O)c1nnc(NC(=O)C2CC2)cc1Nc1cccc(-c2ncn(C)n2)c1OC                 1.03

----------
# relative viability per entry
- Test system: HT1080
- protocol details: relative viability vs DMSO control (72 h) (fraction); higher = more viable cells
- condition details: 1.111 µM

molecule	assay system	relative viability
O=S(=O)(c1cccc2cnccc12)N1CCCNCC1	HT1080	1.06
COC(=O)[C@@]1(O)C[C@H]2O[C@]1(C)n1c3ccccc3c3c4c(c5c6ccccc6n2c5c31)C(=O)NC4 [K-252a]	HT1080	0.683
COCCNc1cc(NC(=O)N2CCCc3cc(CN4CCN(C)CC4=O)c(C=O)nc32)ncc1C#N	HT1080	0.952
CO[C@H]1C[C@@H]2CC[C@@H](C)[C@@](O)(O2)C(=O)C(=O)N2CCCC[C@H]2C(=O)O[C@H]([C@H](C)C[C@@H]2CC[C@@H](OCCO)[C@H](OC)C2)CC(=O)[C@H](C)/C=C(\C)[C@@H](O)[C@@H](OC)C(=O)[C@H](C)C[C@H](C)/C=C/C=C/C=C/1C	HT1080	1.01
Cc1cc2c(F)c(Oc3ncnn4cc(OC[C@@H](C)O)c(C)c34)ccc2[nH]1	HT1080	1.05
CC#CC(=O)N1CCC[C@H]1c1nc(-c2ccc(C(=O)Nc3ccccn3)cc2)c2c(N)nccn12	HT1080	1.03
CC(C)Oc1ccc(-c2nn([C@@H](C)c3oc4ccc(F)cc4c(=O)c3-c3cccc(F)c3)c3ncnc(N)c23)cc1F	HT1080	1.05
C[C@]12O[C@H](C[C@]1(O)CO)n1c3ccccc3c3c4c(c5c6ccccc6n2c5c31)CNC4=O	HT1080	0.689
Cc1cc2cc(Oc3ccnc(Nc4cccc(CS(=O)(=O)NCCN(C)C)c4)n3)ccc2[nH]1	HT1080	0.969
C[C@H](Nc1ncnc2nc[nH]c12)c1cc2cccc(Cl)c2c(=O)n1-c1ccccc1	HT1080	1.15
Cc1cccc(-c2nn3c(c2-c2ccnc4ccc(C(N)=O)cc24)CCC3)n1	HT1080	1.04

Sourced from the supplement of paper PMC10883282
